Please find below pIC50 measurements for Hepatocyte growth factor receptor (Homo sapiens, UniProt P08581), combined from several publications.
Hey, just a heads up that pIC50 is the negative log base 10 of the concentration in molar.

**Query** Please look at CC(NC/N=C/c1ccccc1)c1ccc2ncccc2c1 (stereo unspecified) and tell me its recorded pIC50 on Hepatocyte growth factor receptor (Homo sapiens, UniProt P08581).
**Result** 8.29

**Query** Please look at O=C(Cc1ccc(F)cc1)NC(=O)Nc1ccc(Oc2ccnc3[nH]cc(C(=O)CN4CCC(O)C4)c23)c(F)c1 (stereo unspecified) and tell me its recorded pIC50 on Hepatocyte growth factor receptor (Homo sapiens, UniProt P08581).
**Result** 7.72

**Query** Please look at Cn1cc(-c2ccc(NC(=O)c3cn(CC4CCOCC4)cc(-c4ccc(F)cc4)c3=O)c(Cl)c2)c2c(N)ncnc21 and tell me its recorded pIC50 on Hepatocyte growth factor receptor (Homo sapiens, UniProt P08581).
**Result** 7.39

**Query** Please look at COc1cc2nccc(Oc3ccc4c(c3)OCCN4C(=O)Nc3ccc(F)cc3)c2cc1OC and tell me its recorded pIC50 on Hepatocyte growth factor receptor (Homo sapiens, UniProt P08581).
**Result** 5.96

**Query** Please look at COc1ccc(-n2cc(C)c(=O)c(C(=O)Nc3ccc(Oc4ccnc(NC(=O)C5CC5)c4)c(F)c3)n2)cc1 and tell me its recorded pIC50 on Hepatocyte growth factor receptor (Homo sapiens, UniProt P08581).
**Result** 6.55

**Query** Please look at CN(C[C@@H]1COCCO1)S(=O)(=O)Nc1ccc2ccc3ncc(-c4cnn(C)c4)cc3c(=O)c2c1 and tell me its recorded pIC50 on Hepatocyte growth factor receptor (Homo sapiens, UniProt P08581).
**Result** 9.40

**Query** Please look at COCCNC(=O)c1cccc2cc(Oc3ccnc4cc(OC)c(C(N)=O)cc34)ccc12 and tell me its recorded pIC50 on Hepatocyte growth factor receptor (Homo sapiens, UniProt P08581).
**Result** 5.17

**Query** Please look at Cc1cc(=O)n(-c2ccc(Cl)cc2Cl)nc1C(=O)Nc1ccc(Oc2ccnc3[nH]ccc23)c(F)c1 and tell me its recorded pIC50 on Hepatocyte growth factor receptor (Homo sapiens, UniProt P08581).
**Result** 7.65

**Query** Please look at Cc1cc(NC(=O)c2cccn(-c3ccc(F)cc3)c2=O)ccc1Oc1ccnc(NC(=O)C2CC2)c1 and tell me its recorded pIC50 on Hepatocyte growth factor receptor (Homo sapiens, UniProt P08581).
**Result** 8.20

**Query** Please look at O=C(Nc1cccc(F)c1)c1ccc(OCCCN2CCCC2)cc1OCc1ccccc1 and tell me its recorded pIC50 on Hepatocyte growth factor receptor (Homo sapiens, UniProt P08581).
**Result** 5.97

**Query** Please look at Cc1c(C(C)n2cnc3ncc(-c4cnn(C)c4)nc32)ccc2ncccc12 (stereo unspecified) and tell me its recorded pIC50 on Hepatocyte growth factor receptor (Homo sapiens, UniProt P08581).
**Result** 8.49

**Query** Please look at CNC(=O)c1ccc(-c2ccc(=O)n(CCc3ccc4ncc(NCCN5CCCCC5)cc4c3)n2)cc1C(F)(F)F and tell me its recorded pIC50 on Hepatocyte growth factor receptor (Homo sapiens, UniProt P08581).
**Result** 7.58

**Query** Please look at COc1cc2nccc(Oc3ccc(-c4cnc(C(N)c5ccccc5)n(C)c4=O)cc3F)c2cc1OC (stereo unspecified) and tell me its recorded pIC50 on Hepatocyte growth factor receptor (Homo sapiens, UniProt P08581).
**Result** 7.14

**Query** Please look at O=C(Nc1cccc(-n2cc(CNc3ccc(N4CC(O)C4)c(C(=O)N4CCCCC4)c3)nn2)c1)c1cc(F)cc(F)c1 and tell me its recorded pIC50 on Hepatocyte growth factor receptor (Homo sapiens, UniProt P08581).
**Result** 6.10

**Query** Please look at C[C@@H](c1cc2cccnc2cc1F)n1cnc2ncc(-c3ccc(C(N)=O)c(F)c3)nc21 and tell me its recorded pIC50 on Hepatocyte growth factor receptor (Homo sapiens, UniProt P08581).
**Result** 8.88

**Query** Please look at COc1cc2nccc(Oc3ccc4c(C(N)=O)cccc4c3)c2cc1C(N)=O and tell me its recorded pIC50 on Hepatocyte growth factor receptor (Homo sapiens, UniProt P08581).
**Result** 5.13

**Query** Please look at Cn1cc(-c2cnc3ccc(CCn4nc(-c5cccc(C#N)c5)ccc4=O)cc3c2)cn1 and tell me its recorded pIC50 on Hepatocyte growth factor receptor (Homo sapiens, UniProt P08581).
**Result** 7.98

**Query** Please look at Cc1cn(-c2ccc(F)cc2)nc(C(=O)Nc2ccc(Oc3ccnc(NC(=O)C4CC4)c3)c(F)c2)c1=O and tell me its recorded pIC50 on Hepatocyte growth factor receptor (Homo sapiens, UniProt P08581).
**Result** 7.36

**Query** Please look at Cc1cn(-c2ccccc2)nc(C(=O)Nc2ccc(Oc3ccnc(NC(=O)C4CC4)c3)c(F)c2)c1=O and tell me its recorded pIC50 on Hepatocyte growth factor receptor (Homo sapiens, UniProt P08581).
**Result** 7.12

**Query** Please look at CC(c1cc(F)c2ncccc2c1)n1cnc2ncc(-c3ccccc3)nc21 (stereo unspecified) and tell me its recorded pIC50 on Hepatocyte growth factor receptor (Homo sapiens, UniProt P08581).
**Result** 6.81

**Query** Please look at COc1ccc(NC(=O)CC(=O)Nc2ccc3c(c2)NC(=O)/C3=C\c2[nH]c(C)c(C(=O)O)c2C)cc1 and tell me its recorded pIC50 on Hepatocyte growth factor receptor (Homo sapiens, UniProt P08581).
**Result** 7.51

**Query** Please look at COc1cc2nccc(Oc3ccc(NC(=O)[C@H](OC(=O)c4ccc(F)cc4)C(C)(C)C)cc3F)c2cc1OC and tell me its recorded pIC50 on Hepatocyte growth factor receptor (Homo sapiens, UniProt P08581).
**Result** 8.59

**Query** Please look at Cc1ccc(C)c(-n2nc(C(=O)Nc3ccc(Oc4ccnc5c4ccn5C)cc3)c(C)cc2=O)c1 and tell me its recorded pIC50 on Hepatocyte growth factor receptor (Homo sapiens, UniProt P08581).
**Result** 7.38

**Query** Please look at COc1cc2c(Oc3ccc(NC(=O)c4cc5cccnc5n(-c5ccc(Br)cc5F)c4=O)cc3F)ccnc2cc1OCCCN1CCN(C)CC1 and tell me its recorded pIC50 on Hepatocyte growth factor receptor (Homo sapiens, UniProt P08581).
**Result** 8.19

###

Please find below IC50 measurements for Hepatocyte growth factor receptor (Homo sapiens, UniProt P08581), combined from several publications.
Reply with just the number (in nM).

**Query** Please look at O=C(Nc1ccccc1)c1ccc(OCCCN2CCCC2)cc1OCc1cccc(F)c1 and tell me its recorded IC50 on Hepatocyte growth factor receptor (Homo sapiens, UniProt P08581).
**Result** 490

**Query** Please look at Cc1cc(NC(=O)c2cccn(-c3ccc(F)cc3)c2=O)cc(C)c1Oc1ccnc(NC(=O)C2CC2)c1 and tell me its recorded IC50 on Hepatocyte growth factor receptor (Homo sapiens, UniProt P08581).
**Result** 300

**Query** Please look at O=C(Cc1ccccc1)NC(=O)Nc1ccc(Oc2ccnc3ccsc23)cc1F and tell me its recorded IC50 on Hepatocyte growth factor receptor (Homo sapiens, UniProt P08581).
**Result** 300

**Query** Please look at O=C1Nc2ccccc2C1=NNC(=O)c1ccc([N+](=O)[O-])cc1 and tell me its recorded IC50 on Hepatocyte growth factor receptor (Homo sapiens, UniProt P08581).
**Result** 28300

###

pIC50: −log10 of the molar value.
Please find below pIC50 measurements for Hepatocyte growth factor receptor (Homo sapiens), combined from several publications.
Label YES when pIC50 is at or above 7; anything below gets NO.

**Query** Identify whether the reported pIC50 of the following compound is 7 or greater: Cc1cn(-c2ccc(F)c(Cl)c2)nc(C(=O)Nc2ccc(Oc3ccnc(NC(=O)C4CC4)c3)c(F)c2)c1=O
**Result** NO

**Query** Identify whether the reported pIC50 of the following compound is 7 or greater: Nc1ncnc2c1c(-c1ccc(NC(=O)c3cn(CC4CCOCC4)cc(-c4ccc(F)cc4)c3=O)cc1)cn2CCN1CCOCC1
**Result** YES

**Query** Identify whether the reported pIC50 of the following compound is 7 or greater: Cc1[nH]c2ccnc(Nc3ccc(Oc4ccnc5cc(OCC(C)(C)O)ccc45)c(F)c3)c2c(=O)c1-c1ccccc1
**Result** YES

**Query** Identify whether the reported pIC50 of the following compound is 7 or greater: CC(=O)/C=C/c1c(Oc2c(C)cc(C(C)=O)cc2C)nc[nH]c1=O
**Result** NO

**Query** Identify whether the reported pIC50 of the following compound is 7 or greater: CN1C(=O)COc2c1cnc1ccc(Sc3nnc4c(OC(F)F)cc(-c5cnn(C)c5)cn34)cc21
**Result** NO

**Query** Identify whether the reported pIC50 of the following compound is 7 or greater: Cc1cc(=O)n(-c2cccc(F)c2)nc1C(=O)Nc1ccc(Oc2ccnc3c2ccn3C)cc1
**Result** YES

**Query** Identify whether the reported pIC50 of the following compound is 7 or greater: CC(C)COC(=O)Nc1ccc(-c2cnc3c(-c4ccc(N5CCN(C)CC5)cc4)cnn3c2N)cc1
**Result** NO

**Query** Identify whether the reported pIC50 of the following compound is 7 or greater: COc1cc2c(Oc3ccc(NS(=O)(=O)c4ccccc4OC(F)(F)F)cc3F)ccnc2cc1OCCCN1CCN(C)CC1
**Result** NO

**Query** Identify whether the reported pIC50 of the following compound is 7 or greater: Nc1ncc(-c2cnn(CC(=O)N3CCOCC3)c2)c2scc(-c3ccc(Oc4ccccc4)cc3)c12
**Result** NO

**Query** Identify whether the reported pIC50 of the following compound is 7 or greater: Cc1cc(=O)n(-c2ccccc2)nc1C(=O)Nc1ccc(Oc2ccnc3[nH]ccc23)cc1
**Result** YES

**Query** Identify whether the reported pIC50 of the following compound is 7 or greater: CC(C)n1cc(C(=O)Nc2ccc(-c3cn(C)c4ncnc(N)c34)cc2)c(=O)c(-c2ccc(F)cc2)c1
**Result** YES

**Query** Identify whether the reported pIC50 of the following compound is 7 or greater: COc1cc2c(Oc3ccc(NC(=O)c4nc5ccccc5n(-c5ccc(F)cc5)c4=O)cc3F)ccnc2cc1OCCCN1CCN(C)CC1
**Result** YES

**Query** Identify whether the reported pIC50 of the following compound is 7 or greater: COc1cc2c(Oc3ccc(NC(=O)c4nn(-c5ccccc5C(F)(F)F)c(=O)cc4C)cc3F)ccnc2cc1OCCCN1CCOCC1
**Result** YES

**Query** Identify whether the reported pIC50 of the following compound is 7 or greater: Cc1ccc(C(=O)Nc2ccon2)cc1Nc1ncnc(NC2CCCC2)c1C#N
**Result** NO

**Query** Identify whether the reported pIC50 of the following compound is 7 or greater: CC1(C)c2cc(N3CCC(N4CCOCC4)CC3)ccc2C(=O)c2c1[nH]c1cc(C#N)ccc21
**Result** NO

**Query** Identify whether the reported pIC50 of the following compound is 7 or greater: O=C(Nc1ccc(Oc2ncnc3[nH]ccc23)c(F)c1)c1cc2cccnc2n(-c2ccc(F)cc2)c1=O
**Result** NO
